protocol_text: Half life in ICR mouse at 30 mg/kg, po by LC-MS/MS analysis
Format: ADME, organism-based
run_parameters: ICR, in vivo
endpoint_name: half-life (h)
Report as a plain number; the unit h is understood.

Requested field: half-life. Item: CC1(C)[C@H](NC(=O)c2ccc(N3CCN(CCOC4CCN(c5ccc6nnn(C7CCC(=O)NC7=O)c(=O)c6c5)CC4)CC3)cc2)C(C)(C)[C@H]1Oc1ccc(C#N)c(Cl)c1 (stereo partly specified) 5.58

----------
protocol_text: Tmax in ICR mouse at 5 mg/kg, ip by LC-MS/MS analysis
Format: ADME, organism-based
run_parameters: in vivo
endpoint_name: Tmax (h)
Report as a plain number; the unit h is understood.

Requested field: Tmax. Item: CC1(C)[C@H](NC(=O)c2ccc(N3CCN(CCOC4CCN(c5ccc6nnn(C7CCC(=O)NC7=O)c(=O)c6c5)CC4)CC3)cc2)C(C)(C)[C@H]1Oc1ccc(C#N)c(Cl)c1 (some centres undefined) 2

Then what about the compound CC1(C)[C@H](NC(=O)c2ccc(N3CCN(C4CC5(CCN(C(=O)C6CCN(c7ccc8nnn(C9CCC(=O)NC9=O)c(=O)c8c7)CC6)CC5)C4)CC3)cc2)C(C)(C)[C@H]1Oc1ccc(C#N)c(Cl)c1 (some centres undefined) ? 0.03

Then what about the compound CC1(C)[C@H](NC(=O)c2ccc(N3CCN(CCOC4CCN(C(=O)C5CN(c6ccc7nnn(C8CCC(=O)NC8=O)c(=O)c7c6)C5)CC4)CC3)cc2)C(C)(C)[C@H]1Oc1ccc(C#N)c(Cl)c1 (some centres undefined) ? 1.67

Then what about the compound CC1(C)[C@H](NC(=O)c2ccc(N3CCN(CC4CCN(C(=O)C5CN(c6ccc7nnn(C8CCC(=O)NC8=O)c(=O)c7c6)C5)CC4)CC3)cc2)C(C)(C)[C@H]1Oc1ccc(C#N)c(Cl)c1 (some centres undefined) ? 2
